- Test system: EKVX NSCLC
- procedure-details: NCI-60 one-dose screen, 48 h
- details: 10 µM unless noted
About 83,000 compounds went through this panel and 20% of them were active in at least one assay; those are over-represented in the sample as a whole. The source made the active and inactive calls. The calls were made as follows: active = growth percent below 10; inactive = the rest.
Form entry, call: pick from 1 for active, 0 for inactive

[[record]]
compound = "CC1OC(n2c3ccccc3c3c4c(c5c6ccccc6[nH]c5c32)C(=O)N(CCN[C@@H]2CCC[C@H]2N)C4=O)CC(O)C1O (stereo not given in full)"
assay_system = "EKVX NSCLC"
category_label = 0

[[record]]
compound = "Nc1nccc2c1ccn2-c1ccc(NC(=O)c2ccc(N3CCOCC3)c(C(F)(F)F)c2)cc1"
assay_system = "EKVX NSCLC"
category_label = 0

[[record]]
compound = "Cc1ccc2c(c1)Nc1ccc(C)cc1C2(C)C"
assay_system = "EKVX NSCLC"
category_label = 0

[[record]]
compound = "CC(=O)N1N=C(CCC(=O)c2nc3ccc([N+](=O)[O-])cc3[nH]2)OC1c1ccc(O)cc1 (stereo not given)"
assay_system = "EKVX NSCLC"
category_label = 0

[[record]]
compound = "CN1C(=O)C2(NN=C(c3cccc4ccccc34)S2)c2ccccc21 (stereo not given)"
assay_system = "EKVX NSCLC"
category_label = 0

[[record]]
compound = "C=C1C(=O)O[C@H]2[C@H]1CC/C(COC(=O)CCCC(=O)OC/C1=C/CC[C@@]3(C)O[C@H]3[C@H]3OC(=O)C(=C)[C@@H]3CC1)=C\\CC[C@@]1(C)O[C@@H]21"
assay_system = "EKVX NSCLC"
category_label = 0


*Q* Tell me the recorded outcome of this test for CCc1c(C)c2cc(-n3c(-c4ccc(OC)cc4)csc3=N)c(O)c(C)c2oc1=O .
*A* 0

*Q* Give the logged outcome of this assay for the following compound: COc1cc2c(/C=C3/C(=O)Nc4ccc(O)cc43)c(Cl)n(Cc3cc(OC)c(OC)c(OC)c3)c2cc1C
*A* 0

*Q* # lookup: test call for CC(=O)Nc1ccc(OC(=O)c2ccccc2O)cc1
*A* 0

*Q* Could you kindly confirm the outcome this assay logged for CC(C)(C)OC(=O)N1CCN(CCn2cc(C(F)(F)F)c3c(Cl)ncnc32)CC1 ?
*A* 0

*Q* Short answer needed: outcome of this test for Cc1ccc(Cn2cc(COc3ccc4c5ccnc(C)c5n(CCCc5ccccc5)c4c3)nn2)cc1 ?
*A* 0
